Tested on: NCI-H226 cells
Assay: Cell growth assay (CellTiter-Glo)
Assay type: cell-based, human
Conditions: Homo sapiens, NCI-H226, 168 h, 7 days treatment, CellTiter-Glo luminescence, read-out: H226 CTG IC50
pIC50: −log10 of the molar value.
Measured pIC50 by item

COMPOUND	pIC50
Cn1ncc2c(C3C[C@H]3C(N)=O)cc(Oc3ccc(C(F)(F)F)cc3)cc21 (mixture of isomers) [Example 35]	> 7.00
Cn1cc2cc(Oc3ccc(C(F)(F)F)cc3)cc(C3C[C@H]3C(=O)N3C[C@H]4C[C@@H]3C[C@H]4O)c2n1 (single isomer, unassigned) [Example 103e]	> 7.00
Cn1cc2cc(Oc3ccc(C(F)(F)F)cc3)cc(C3C[C@H]3C(=O)O)c2n1 (mixture of isomers) [Example 16]	6.30 to 7.00
O=C(O)[C@@H]1CC1c1cc(-c2ccc(C(F)(F)F)cc2)cc2c1cnn2C(F)F (mixture of isomers) [Example 9]	6.30 to 7.00
CN(C#N)C(=O)[C@@H]1C[C@H]1c1cc(Oc2ccc(C(F)(F)F)cc2)cc2cn(C)nc12 (single isomer, unassigned) [Example 124]	4.52 to 6.00
Cn1cc2nc(Oc3ccc(C(F)(F)F)cc3)cc([C@H]3C[C@@H]3C(=O)N3CC(O)C3)c2n1 (single isomer, unassigned) [Example 108b]	> 7.00
CNC(=O)[C@H]1C[C@@H]1c1cc(Oc2ccc(C(F)(F)F)cc2)cc2cn(C)nc12 (single isomer, unassigned) [Example 34b]	> 7.00
CNS(=O)(=O)CCc1cc(Oc2ccc(C(F)(F)F)cc2)cc2c1NCCC2 [Example 143]	> 7.00
O=C(O)[C@@H]1CC1c1cc(-c2ccc(C(F)(F)F)cc2)cc2cccnc12 (mixture of isomers) [Example 13]	> 7.00
CNC(=O)[C@@H]1C[C@H]1c1cc(Oc2ccc(C(F)(F)F)cc2)cc2cn(C)nc12 (single isomer, unassigned) [Example 34a]	6.30 to 7.00
Cn1cc2cc(Oc3ccc(C(F)(F)F)cc3)cc(C3C[C@H]3C(=O)NC3CC4(CC(O)C4)C3)c2n1 (single isomer, unassigned) [Example 95]	> 7.00
[2H]C([2H])([2H])NC(=O)[C@H]1CC1c1cc(Oc2ccc(C(F)(F)F)cc2)cc2cn(C)nc12 (single isomer, unassigned) [Example 53]	> 7.00
CNC(=O)[C@@H]1CC1c1cc(OC2CC3(C2)CC(F)(F)C3)cc2cn(C)nc12 (mixture of isomers) [Example 94]	6.30 to 7.00
Cn1cc2cc(Oc3ccc(C(F)(F)F)cc3)cc(C3C[C@H]3C(=O)N3CCC4(COC4)C3)c2n1 (single isomer, unassigned) [Example 98]	6.30 to 7.00
C[C@H](C#N)NC(=O)[C@@H]1C[C@H]1c1cc(Oc2ccc(C(F)(F)F)cc2)cc2cn(C)nc12 (single isomer, unassigned) [Example 68]	> 7.00
Cn1cc2cc(OC3CC4(C3)CC(F)(F)C4)cc(C3C[C@H]3C(=O)O)c2n1 (mixture of isomers) [Example 93]	6.30 to 7.00
CNC(=O)[C@@H]1CC1c1cc(-c2ccc(OC(F)(F)F)cc2)cc2cn(C)nc12 (mixture of isomers) [Example 33]	> 7.00
O=C(O)[C@@H]1CC1c1cn(-c2ccc(C(F)(F)F)cc2)c2cccnc12 (mixture of isomers) [Example 20]	6.30 to 7.00

Source of measurements: patent US12103915B2
